Readings of IC50 for the listed compounds
system: UniProt Q12809
Sequence (Q12809 whole entry): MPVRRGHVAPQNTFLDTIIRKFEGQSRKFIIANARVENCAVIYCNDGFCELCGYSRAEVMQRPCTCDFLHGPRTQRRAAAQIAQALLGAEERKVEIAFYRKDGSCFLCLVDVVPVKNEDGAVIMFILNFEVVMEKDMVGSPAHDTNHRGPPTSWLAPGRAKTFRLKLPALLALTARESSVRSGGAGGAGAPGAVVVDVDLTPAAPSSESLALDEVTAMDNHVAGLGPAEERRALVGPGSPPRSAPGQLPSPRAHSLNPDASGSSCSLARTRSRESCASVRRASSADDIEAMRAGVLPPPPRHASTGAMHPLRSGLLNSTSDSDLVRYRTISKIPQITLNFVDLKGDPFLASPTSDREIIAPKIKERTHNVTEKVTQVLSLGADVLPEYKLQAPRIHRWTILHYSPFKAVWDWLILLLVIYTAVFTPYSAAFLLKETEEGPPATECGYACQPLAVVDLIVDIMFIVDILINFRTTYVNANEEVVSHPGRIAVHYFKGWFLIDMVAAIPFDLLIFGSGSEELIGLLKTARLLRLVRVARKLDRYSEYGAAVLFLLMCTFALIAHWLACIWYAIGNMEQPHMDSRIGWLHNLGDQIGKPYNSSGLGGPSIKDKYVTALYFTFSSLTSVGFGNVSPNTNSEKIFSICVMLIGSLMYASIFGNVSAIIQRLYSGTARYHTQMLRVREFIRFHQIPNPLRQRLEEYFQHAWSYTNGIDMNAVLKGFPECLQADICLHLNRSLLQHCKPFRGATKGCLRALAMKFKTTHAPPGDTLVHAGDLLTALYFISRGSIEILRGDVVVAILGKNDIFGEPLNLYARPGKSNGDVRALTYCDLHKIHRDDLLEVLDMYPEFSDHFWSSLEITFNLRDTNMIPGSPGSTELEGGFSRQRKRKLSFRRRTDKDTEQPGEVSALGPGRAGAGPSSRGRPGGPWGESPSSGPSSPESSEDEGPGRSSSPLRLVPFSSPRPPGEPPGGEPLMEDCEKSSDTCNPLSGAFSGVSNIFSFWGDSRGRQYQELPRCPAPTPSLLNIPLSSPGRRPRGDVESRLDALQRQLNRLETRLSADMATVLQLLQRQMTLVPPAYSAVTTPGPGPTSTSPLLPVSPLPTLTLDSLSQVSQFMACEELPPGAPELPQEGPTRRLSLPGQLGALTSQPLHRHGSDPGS
test_name: hERG binding

>>> df
                              sample_smiles          system  result
0  OCCC/C(=C(/c1ccc(C2CCN(C3CC3)CC2)cc1)c1cccc(O)c1)c1ccccc1  UniProt Q12809   17 µM

We now examine a further compound.
Give recorded IC50. `CC(C)N1CCN(c2ccc(/C(=C(/CCCO)c3ccccc3)c3ccc(O)cc3)cc2)CC1` > 10 µM

###

Below is a list of entries, each paired with its recorded MS (% of control) h value.
test_name: MS (microsomal stability) h
Assay type: in vitro ADME, human

Known results for molecules:
                                   molecule           result
0  CN(C)CCOc1ccc(/C(=C(/CCCO)c2ccccc2)c2ccc(O)cc2)cc1 [GSK5182, reference compound]  43 % of control
1  CC(C)N1CCN(c2ccc(/C(=C(/CCCO)c3ccccc3)c3cccc(O)c3)cc2)CC1  65 % of control
2  CC(C)N1CCN(c2ccc(/C(=C(/CCCO)c3ccccc3)c3ccc(O)cc3)cc2)CC1  27 % of control

Next item in the queue.
In one line, give reported MS (% of control) h of the entry `OCCC/C(=C(/c1ccc(C2CCN(C3CC3)CC2)cc1)c1cccc(O)c1)c1ccccc1` . 62 % of control

###

clearance listing for selected compounds.
test_name: PK
Assay type: in vivo
measurement_parameters: in vivo; read-out: PK CL

As a guide, the following entries are already answered.
>>> print(df.to_string())
                                   compound  reported_metric        result
0  OCCC/C(=C(\c1ccc(O)cc1)c1ccc(C2CCN(C3CC3)CC2)cc1)c1ccccc1        clearance  68 mL/min/kg
1  CN(C)CCOc1ccc(/C(=C(/CCCO)c2ccccc2)c2ccc(O)cc2)cc1 [GSK5182, reference compound]        clearance  44 mL/min/kg
2  OCCC/C(=C(/c1ccc(C2CCN(C3CC3)CC2)cc1)c1cccc(O)c1)c1ccccc1        clearance  45 mL/min/kg

Kindly indicate its recorded clearance. Item: `CC(C)N1CCN(c2ccc(/C(=C(/CCCO)c3ccccc3)c3ccc(O)cc3)cc2)CC1` 75 mL/min/kg

###

# MS (% of control) d listing for each entry below
test_name: MS (microsomal stability) d
Assay type: in vitro ADME, dog

Here is how some molecules turned out for MS (% of control) d.
                                   molecule           result
0  OCCC/C(=C(\c1ccc(O)cc1)c1ccc(C2CCN(C3CC3)CC2)cc1)c1ccccc1  92 % of control
1  CN(C)CCOc1ccc(/C(=C(/CCCO)c2ccccc2)c2ccc(O)cc2)cc1 [GSK5182, reference compound]  10 % of control
2  CC(C)N1CCN(c2ccc(/C(=C(/CCCO)c3ccccc3)c3cccc(O)c3)cc2)CC1  61 % of control
3  CC(C)N1CCN(c2ccc(/C(=C(/CCCO)c3ccccc3)c3ccc(O)cc3)cc2)CC1  50 % of control

Switching to the query record.
Fill in reported MS (% of control) d for this entry: `OCCC/C(=C(/c1ccc(C2CCN(C3CC3)CC2)cc1)c1cccc(O)c1)c1ccccc1` 57 % of control

###

Reported half-life values for the following compounds.
test_name: PK
Type: in vivo
measurement_parameters: in vivo; read-out: PK T½ (converted)
Give just the numeric value; min need not be written.

Use the examples below as a reference point.
In [3]: df
Out[3]:
                                   compound  reported_metric  result_number
0  CC(C)N1CCN(c2ccc(/C(=C(/CCCO)c3ccccc3)c3ccc(O)cc3)cc2)CC1 [DMRC200434]        half-life            222
1  OCCC/C(=C(/c1ccc(C2CCN(C3CC3)CC2)cc1)c1cccc(O)c1)c1ccccc1 [DMRC200966]        half-life            108

Here is another compound to look at.
Please give the documented half-life of OCCC/C(=C(\c1ccc(O)cc1)c1ccc(C2CCN(C3CC3)CC2)cc1)c1ccccc1 [DMRC200699] 180

###

test_name: PK
Format: in vivo
measurement_parameters: in vivo
reported_metric: Cmax (nM)
Express your answer in nM, writing the number without its unit.

Would you please look over these solved cases?
                                   compound  reported_metric  result_number
0  CC(C)N1CCN(c2ccc(/C(=C(/CCCO)c3ccccc3)c3ccc(O)cc3)cc2)CC1 [DMRC200434]             Cmax            208
1  OCCC/C(=C(/c1ccc(C2CCN(C3CC3)CC2)cc1)c1cccc(O)c1)c1ccccc1 [DMRC200966]             Cmax           1510

Please look at the following compound next.
Answer with reported Cmax of OCCC/C(=C(\c1ccc(O)cc1)c1ccc(C2CCN(C3CC3)CC2)cc1)c1ccccc1 [DMRC200699] 380

###

A collection of compounds and their measured MS (% of control) r
test_name: MS (microsomal stability) r
Format: in vitro ADME, rat

Solved cases below.
                                   compound           result
0  CC(C)N1CCN(c2ccc(/C(=C(/CCCO)c3ccccc3)c3cccc(O)c3)cc2)CC1  55 % of control
1  OCCC/C(=C(/c1ccc(C2CCN(C3CC3)CC2)cc1)c1cccc(O)c1)c1ccccc1  50 % of control
2  OCCC/C(=C(\c1ccc(O)cc1)c1ccc(C2CCN(C3CC3)CC2)cc1)c1ccccc1  92 % of control
3  CN(C)CCOc1ccc(/C(=C(/CCCO)c2ccccc2)c2ccc(O)cc2)cc1 [GSK5182, reference compound]  26 % of control

For the next question, use this compound.
Answer with the recorded MS (% of control) r for the compound listed here: `CC(C)N1CCN(c2ccc(/C(=C(/CCCO)c3ccccc3)c3ccc(O)cc3)cc2)CC1` 33 % of control

###

test_name: PK
Format: in vivo
measurement_parameters: in vivo
Overview of reported PK BA % across a group of compounds:
Write the answer as a number in %, unit excluded.

Some compounds with recorded PK BA %:
In [3]: df
Out[3]:
                                   compound  result_number
0  OCCC/C(=C(\c1ccc(O)cc1)c1ccc(C2CCN(C3CC3)CC2)cc1)c1ccccc1             46
1  OCCC/C(=C(/c1ccc(C2CCN(C3CC3)CC2)cc1)c1cccc(O)c1)c1ccccc1           58.2

Dear colleague, please send me the reported PK BA % for CN(C)CCOc1ccc(/C(=C(/CCCO)c2ccccc2)c2ccc(O)cc2)cc1 [GSK5182, reference compound] when you can. 8.4

Indicate the recorded PK BA % value for this compound: `CC(C)N1CCN(c2ccc(/C(=C(/CCCO)c3ccccc3)c3ccc(O)cc3)cc2)CC1` 22

###

MS (% of control) m values by entry
test_name: MS (microsomal stability) m
Format: in vitro ADME, mouse

>>> df
                                   compound           result
0  CC(C)N1CCN(c2ccc(/C(=C(/CCCO)c3ccccc3)c3ccc(O)cc3)cc2)CC1 [DMRC200434]  20 % of control
1  CC(C)N1CCN(c2ccc(/C(=C(/CCCO)c3ccccc3)c3cccc(O)c3)cc2)CC1 [DMRC2001000]  27 % of control
2  CN(C)CCOc1ccc(/C(=C(/CCCO)c2ccccc2)c2ccc(O)cc2)cc1 [GSK5182, reference compound]   7 % of control
3  OCCC/C(=C(\c1ccc(O)cc1)c1ccc(C2CCN(C3CC3)CC2)cc1)c1ccccc1 [DMRC200699]  84 % of control

Give the measured MS (% of control) m for OCCC/C(=C(/c1ccc(C2CCN(C3CC3)CC2)cc1)c1cccc(O)c1)c1ccccc1 [DMRC200966] 25 % of control

###

test_name: PK
Type: in vivo
measurement_parameters: iv
Threshold rule: PK iv AUC greater than or equal to 0.8 μMh is fulfilled; below that, not fulfilled.

Some solved cases for reference:
                                   compound  assigned_category
0  CC(C)N1CCN(c2ccc(/C(=C(/CCCO)c3ccccc3)c3cccc(O)c3)cc2)CC1 [DMRC2001000]          fulfilled
1  CN(C)CCOc1ccc(/C(=C(/CCCO)c2ccccc2)c2ccc(O)cc2)cc1 [GSK5182, reference compound]          fulfilled
2  OCCC/C(=C(\c1ccc(O)cc1)c1ccc(C2CCN(C3CC3)CC2)cc1)c1ccccc1 [DMRC200699]      not fulfilled
3  CC(C)N1CCN(c2ccc(/C(=C(/CCCO)c3ccccc3)c3ccc(O)cc3)cc2)CC1 [DMRC200434]      not fulfilled

Moving on to the next compound.
hey, is PK iv AUC for this one >= 0.8 μMh? OCCC/C(=C(/c1ccc(C2CCN(C3CC3)CC2)cc1)c1cccc(O)c1)c1ccccc1 [DMRC200966] fulfilled
